Molecular target: ATP-binding cassette sub-family C member 3 (Homo sapiens, UniProt O15438)
Sequence (O15438 whole entry): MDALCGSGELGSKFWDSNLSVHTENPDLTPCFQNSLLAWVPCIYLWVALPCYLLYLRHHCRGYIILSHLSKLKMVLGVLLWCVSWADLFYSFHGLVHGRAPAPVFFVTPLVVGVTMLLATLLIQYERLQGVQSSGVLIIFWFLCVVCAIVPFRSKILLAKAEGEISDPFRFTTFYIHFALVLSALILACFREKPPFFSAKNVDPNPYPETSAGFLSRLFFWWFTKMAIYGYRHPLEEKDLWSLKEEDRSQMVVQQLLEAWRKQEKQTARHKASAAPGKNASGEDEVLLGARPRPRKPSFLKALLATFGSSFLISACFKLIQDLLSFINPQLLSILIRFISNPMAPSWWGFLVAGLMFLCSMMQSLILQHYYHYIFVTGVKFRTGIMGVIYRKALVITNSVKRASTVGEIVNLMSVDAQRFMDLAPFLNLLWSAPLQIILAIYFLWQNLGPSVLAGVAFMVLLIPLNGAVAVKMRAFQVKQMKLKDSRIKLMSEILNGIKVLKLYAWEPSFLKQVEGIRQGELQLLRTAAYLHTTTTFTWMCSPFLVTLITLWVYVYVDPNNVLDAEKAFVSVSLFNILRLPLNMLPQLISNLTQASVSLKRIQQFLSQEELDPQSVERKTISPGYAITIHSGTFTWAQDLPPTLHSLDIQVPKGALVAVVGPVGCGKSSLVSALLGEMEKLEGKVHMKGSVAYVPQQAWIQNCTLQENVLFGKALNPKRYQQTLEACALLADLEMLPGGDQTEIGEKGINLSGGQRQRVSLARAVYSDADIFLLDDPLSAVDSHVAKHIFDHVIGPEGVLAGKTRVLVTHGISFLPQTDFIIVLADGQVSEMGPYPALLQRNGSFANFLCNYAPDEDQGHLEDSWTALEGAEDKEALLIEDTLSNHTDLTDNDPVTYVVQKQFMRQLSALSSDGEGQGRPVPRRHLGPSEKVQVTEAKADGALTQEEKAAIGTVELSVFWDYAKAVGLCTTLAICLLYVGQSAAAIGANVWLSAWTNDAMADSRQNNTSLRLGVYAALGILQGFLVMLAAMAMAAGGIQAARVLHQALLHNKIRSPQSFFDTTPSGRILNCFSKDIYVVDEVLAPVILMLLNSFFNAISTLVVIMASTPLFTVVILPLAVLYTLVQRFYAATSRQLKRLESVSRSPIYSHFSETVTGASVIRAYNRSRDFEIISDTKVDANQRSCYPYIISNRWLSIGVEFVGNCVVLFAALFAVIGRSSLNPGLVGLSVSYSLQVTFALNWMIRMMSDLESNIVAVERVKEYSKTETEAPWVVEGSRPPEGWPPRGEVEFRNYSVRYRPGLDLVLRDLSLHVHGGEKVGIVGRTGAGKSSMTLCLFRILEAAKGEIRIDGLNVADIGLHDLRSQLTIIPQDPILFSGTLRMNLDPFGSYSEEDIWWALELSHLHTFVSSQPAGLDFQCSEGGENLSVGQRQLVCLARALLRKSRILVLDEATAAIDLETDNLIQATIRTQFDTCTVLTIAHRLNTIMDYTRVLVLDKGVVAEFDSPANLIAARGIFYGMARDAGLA
Assay: Inhibition of […]-stimulated MRP3 ATPase activity (unknown origin) in presence of GSH
pIC50: −log10 of the molar value.
REPORTED PROPERTY: pIC50

Lab note: need pIC50 with ATP-binding cassette sub-family C member 3 (Homo sapiens, UniProt O15438) for entry `COc1cc2c(cc1OC)CN(CCc1ccc(-n3nnc(-c4cc(OC)c(OC)cc4NC(=O)c4cc(=O)c5ccccc5o4)n3)cc1)CC2` , please look it up.
< 4.00

###

Assay: Apparent permeability from apical to basolateral side in MDCK-II cells after 120 mins by LC-MS/MS analysis
Assay type: ADME, cell-based, Canis lupus familiaris
Details: dog
For each entry below, report its Papp A→B at 2 h value.
Numbers only, in ×10⁻⁶ cm/s.

Check out these entries, answers already filled in.
MOLECULE	UNIT LABEL	OBSERVED MEASUREMENT
COc1cc2c(cc1OC)CN(CCc1ccc(-n3nnc(-c4cc(OC)c(OC)cc4NC(=O)c4cc(=O)c5ccccc5o4)n3)cc1)CC2	×10⁻⁶ cm/s	0.002
O[C@@H](COc1cccc2ncccc12)CN1CCN([C@@H]2c3ccccc3[C@@H]3[C@H](c4ccccc42)C3(F)F)CC1 [ZOSUQUIDAR]	×10⁻⁶ cm/s	1.1
COc1cc2c(cc1OC)CN(CCc1ccc(NC(=O)c3cc(OC)c(OC)cc3NC(=O)c3cnc4ccccc4c3)cc1)CC2	×10⁻⁶ cm/s	1.1

Then there is this molecule:
What value of measured Papp A→B at 2 h is listed for `COc1cc2c(cc1OC)CN(CCc1ccc(NC(=O)c3cccc4c(=O)c5cccc(OC)c5[nH]c34)cc1)CC2` ?
0.1
